# system_under_test: dAsCas12a E174R (Acidaminococcus sp., UniProt U2UMQ6 1-1307, E174R;D908A;E993A;D1235A)
# procedure_summary: Spec-seq (native PAGE EMSA with sequencing of bound and unbound); 25 mM Tris-HCl pH 7.4, 150 mM KCl, 5 mM MgCl2, 10% glycerol, 1 mM DTT, 40 ng/uL salmon sperm DNA; 400 nM Cas12a, 480 nM crRNA, 50 nM library, 37 C 1 h; native PAGE at room temperature; high values mean tight binding;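 further: relative affinity from the bound to unbound sequence frequency ratio in Spec-seq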
# test_settings: protein: recombinant
So I've got a bunch of binders here, and I need their binding signal values.
Enter the number, and then the unit.

Entry CTTT (dsDNA) DNA 1: GCTATCTAGTGCTCAGTACGCACTGCTTTAGGAAACTTCTGGCAGGACCAGGTCATGAGATCGGAAGAGCACACGTCTGAACTCCAGTCA DNA 2: TGACTGGAGTTCAGACGTGTGCTCTTCCGATCTCATGACCTGGTCCTGCCAGAAGTTTCCTAAAGCAGTGCGTACTGAGCACTAGATAGC RNA: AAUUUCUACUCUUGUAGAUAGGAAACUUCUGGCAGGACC — recorded binding signal = -6.84 lnKA

Lab note: measured binding signal of TTTC (dsDNA) DNA 1: GCTATCTAGTGCTCAGTACGCACTGTTTCAGGAAACTTCTGGCAGGACCAGGTCATGAGATCGGAAGAGCACACGTCTGAACTCCAGTCA DNA 2: TGACTGGAGTTCAGACGTGTGCTCTTCCGATCTCATGACCTGGTCCTGCCAGAAGTTTCCTGAAACAGTGCGTACTGAGCACTAGATAGC RNA: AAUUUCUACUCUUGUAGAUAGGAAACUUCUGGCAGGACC was -0.339 lnKA

Please fill in: binding signal reported for AATT (dsDNA) DNA 1: GCTATCTAGTGCTCAGTACGCACTGAATTAGGAAACTTCTGGCAGGACCAGGTCATGAGATCGGAAGAGCACACGTCTGAACTCCAGTCA DNA 2: TGACTGGAGTTCAGACGTGTGCTCTTCCGATCTCATGACCTGGTCCTGCCAGAAGTTTCCTAATTCAGTGCGTACTGAGCACTAGATAGC RNA: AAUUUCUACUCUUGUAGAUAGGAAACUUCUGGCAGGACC = -8.34 lnKA

The binder TATC (dsDNA) DNA 1: GCTATCTAGTGCTCAGTACGCACTGTATCAGGAAACTTCTGGCAGGACCAGGTCATGAGATCGGAAGAGCACACGTCTGAACTCCAGTCA DNA 2: TGACTGGAGTTCAGACGTGTGCTCTTCCGATCTCATGACCTGGTCCTGCCAGAAGTTTCCTGATACAGTGCGTACTGAGCACTAGATAGC RNA: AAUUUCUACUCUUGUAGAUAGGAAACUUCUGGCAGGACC showed binding signal equal to -6.33 lnKA

# binding signal of GATA (dsDNA) DNA 1: GCTATCTAGTGCTCAGTACGCACTGGATAAGGAAACTTCTGGCAGGACCAGGTCATGAGATCGGAAGAGCACACGTCTGAACTCCAGTCA DNA 2: TGACTGGAGTTCAGACGTGTGCTCTTCCGATCTCATGACCTGGTCCTGCCAGAAGTTTCCTTATCCAGTGCGTACTGAGCACTAGATAGC RNA: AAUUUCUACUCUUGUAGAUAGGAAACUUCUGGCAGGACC = -6.9 lnKA
